EXPERIMENT_NOTES: AUC (0 to infinity) in C57BL/6 mouse at 3.5 mg/kg administered intraarterially by LC-MS/MS analysis
Type: ADME, organism-based
Design: time infinity, dose 3.5 mg/kg, route intra-arterial
MEASUREMENT_PARAMETERS: plasma

- STRUCTURE_NOTATION: "O=C(O)[C@H]1O[C@@H](Oc2cc(O)cc(/C=C/c3ccc(O)cc3)c2)[C@H](O)[C@@H](O)[C@@H]1O"
  MEASUREMENT_UNIT: "µM·h"
  AUC(0-inf): 11.8

====

EXPERIMENT_NOTES: AUC (0 to t) in C57BL/6 mouse at 15 mg/kg administered intraarterially by LC-MS/MS analysis
Assay type: ADME, organism-based
Set-up: dose 15 mg/kg, route intra-arterial
MEASUREMENT_PARAMETERS: plasma

- STRUCTURE_NOTATION: "Oc1ccc(/C=C/c2cc(O)cc(O)c2)cc1"
  AUC(0-t) / µM·h: 8.5

====

EXPERIMENT_NOTES: Terminal half life in C57BL/6 mouse at 15 mg/kg administered intraarterially by LC-MS/MS analysis
Type: ADME, organism-based
Parameters: dose 15 mg/kg, route intra-arterial
MEASUREMENT_PARAMETERS: in vivo, read-out: beta t1/2

- STRUCTURE_NOTATION: "Oc1ccc(/C=C/c2cc(O)cc(O)c2)cc1"
  half-life, h: 3.18

====

EXPERIMENT_NOTES: Tmax in C57BL/6 mouse at 5 mg/kg administered intraarterially by LC-MS/MS analysis
Type: ADME, organism-based
Design: dose 5 mg/kg, route intra-arterial
MEASUREMENT_PARAMETERS: in vivo

- STRUCTURE_NOTATION: "O=S(=O)(O)Oc1cc(O)cc(/C=C/c2ccc(O)cc2)c1"
  MEASUREMENT_UNIT: "min"
  Tmax: 2.5

====

EXPERIMENT_NOTES: Clearance in C57BL/6 mouse at 3.5 mg/kg administered intraarterially by LC-MS/MS analysis
Assay type: ADME, organism-based
Set-up: dose 3.5 mg/kg, route intra-arterial
MEASUREMENT_PARAMETERS: in vivo
MEASURED_METRIC: clearance (mL/min/kg)

- STRUCTURE_NOTATION: "O=C(O)[C@H]1O[C@@H](Oc2cc(O)cc(/C=C/c3ccc(O)cc3)c2)[C@H](O)[C@@H](O)[C@@H]1O"
  MEASURED_METRIC: "clearance"
  REPORTED: 13.8

====

EXPERIMENT_NOTES: Cmax in C57BL/6 mouse at 5 mg/kg administered intraarterially by LC-MS/MS analysis
Type: ADME, organism-based
Set-up: dose 5 mg/kg, route intra-arterial
MEASUREMENT_PARAMETERS: in vivo
MEASURED_METRIC: Cmax (µM)

- STRUCTURE_NOTATION: "O=S(=O)(O)Oc1cc(O)cc(/C=C/c2ccc(O)cc2)c1"
  MEASURED_METRIC: "Cmax"
  REPORTED: 14.8

====

EXPERIMENT_NOTES: AUC (0 to infinity) in C57BL/6 mouse at 5 mg/kg administered intraarterially by LC-MS/MS analysis
Type: ADME, organism-based
Set-up: time infinity, dose 5 mg/kg, route intra-arterial
MEASUREMENT_PARAMETERS: plasma
MEASURED_METRIC: AUC(0-inf) (µM·h)

- STRUCTURE_NOTATION: "O=S(=O)(O)Oc1cc(O)cc(/C=C/c2ccc(O)cc2)c1"
  REPORTED: 4.26

====

EXPERIMENT_NOTES: Terminal half life in C57BL/6 mouse at 3.5 mg/kg administered intraarterially by LC-MS/MS analysis
Type: ADME, organism-based
Set-up: dose 3.5 mg/kg, route intra-arterial
MEASUREMENT_PARAMETERS: in vivo, read-out: beta t1/2

- STRUCTURE_NOTATION: "O=C(O)[C@H]1O[C@@H](Oc2cc(O)cc(/C=C/c3ccc(O)cc3)c2)[C@H](O)[C@@H](O)[C@@H]1O"
  half-life (h): 4.54

====

EXPERIMENT_NOTES: AUC (0 to t) in C57BL/6 mouse at 3.5 mg/kg administered intraarterially by LC-MS/MS analysis
Assay type: ADME, organism-based
Design: dose 3.5 mg/kg, route intra-arterial
MEASUREMENT_PARAMETERS: plasma

- STRUCTURE_NOTATION: "O=C(O)[C@H]1O[C@@H](Oc2cc(O)cc(/C=C/c3ccc(O)cc3)c2)[C@H](O)[C@@H](O)[C@@H]1O"
  AUC(0-t) / µM·h: 10.8

====

EXPERIMENT_NOTES: Clearance in C57BL/6 mouse at 15 mg/kg administered intraarterially by LC-MS/MS analysis
Format: ADME, organism-based
Set-up: dose 15 mg/kg, route intra-arterial
MEASUREMENT_PARAMETERS: in vivo

- STRUCTURE_NOTATION: "Oc1ccc(/C=C/c2cc(O)cc(O)c2)cc1"
  clearance / mL/min/kg: 119
